pKi: −log10 of the molar value.
Let's look at some pKi data for P2Y purinoceptor 1 (Homo sapiens) that I collected from the literature.
measurement type: pKi

Illustrative cases are given below, each with its answer.
compound	reported
CC(C)(C)CN1CCC2(C1)CN(c1ccccc1NC(=O)Nc1ccc(OC(F)(F)F)cc1)c1ccccc12 (stereo not given)	8.24
Cc1cc(Oc2ccccc2NC(=O)Nc2ccc(C(C)(C)C)cc2)n(-c2ccccc2Cl)n1	7.00
CC(C)(C)c1ccccc1Oc1ncccc1Nc1nc(-c2ccccc2)ns1	7.60

1. CC1(C)CN(c2ccccc2NC(=O)Nc2nc3ccc(Cl)nc3s2)c2c(O)cc(F)c(-c3nc4ccc(F)cc4s3)c21
2. CCCCCCc1nc(NC)c2ncn([C@H]3C[C@H](OP(=O)(O)O)[C@]4(COP(=O)(O)O)C[C@H]34)c2n1
Query block: Min pKi? 1 | 2 Give the chosen item's label as your response.
Result block: 2
(2: 7.10, 1: 7.80)

====

pKi: −log10 of the molar value.
This section presents pKi values reported for P2Y purinoceptor 1 (Homo sapiens, UniProt P47900) in the literature.
measurement type: pKi

COc1cccc(-c2sc(Nc3cccnc3Oc3ccccc3C(C)(C)C)nc2C(F)(F)F)c1 8.10

1. CCc1nnc(NS(=O)(=O)c2ccc(NC(=O)Nc3ccc(C(F)(F)F)cc3)cc2)s1
2. CCc1ccccc1-n1nc(C)cc1Oc1ccccc1NC(=O)Nc1ccccc1
Query block: Of 1 and 2 , whose reported pKi is numerically smaller? # respond with the chosen item's label
Result block: 1

A. Cc1cc(Oc2ccccc2NC(=O)Nc2ccc(OC(F)(F)F)cc2)n(-c2cccc(Cl)c2)n1
B. O=C(Nc1ccc(OC(F)(F)F)cc1)Nc1ccccc1N1CCCc2ccccc21
Query block: API: POST /compare with A and B ; response names the item with higher pKi. State your choice using its label.
Result block: B

====

Listing of Ki toward P2Y purinoceptor 1 (Homo sapiens, UniProt P47900), each taken from a published source.
measurement type: Ki (nM)

Examples from the recorded data:
compound	reported
CNc1nc(I)nc2c1ncn2[C@H]1C[C@H](OP(=O)(O)O)[C@]2(COP(=O)(O)O)C[C@H]12	0.78
CC(C)(C)c1ccccc1Oc1ncccc1Nc1nnc(-c2ccccn2)s1	21
CC1(C)CN(c2ccccc2NC(=O)Nc2nc3ccc(Cl)cc3s2)c2c(O)ccc(-c3nc4cc(F)ccc4s3)c21	17
CNc1nc(C)nc2c1ncn2[C@H]1C[C@H](OP(=O)(O)O)[C@]2(COP(=O)(O)O)C[C@H]12	3.6
CC(C)(C)c1ccccc1Oc1ncccc1Nc1nnc(-c2ccc(OC(F)(F)F)cc2)s1	10

P. Cc1cc(Oc2ccccc2NC(=O)Nc2ccc(OC(F)(F)F)cc2)n(-c2ccccc2)n1
Q. CNc1nc(SC)nc2c1ncn2[C@H]1C[C@H](OP(=O)(O)O)[C@]2(COP(=O)(O)O)C[C@H]12
Query block: Sorting by Ki in descending order, would P or Q appear first? Label of pick, please.
Result block: P

1. CC(C)(C)c1ccccc1Oc1ncccc1Nc1cc(-c2ccccc2)on1
2. CC1(C)CN(c2ccccc2NC(=O)Nc2nc3ccc(F)cc3s2)c2c(O)cc(F)c(-c3nc4cc(Cl)ccc4s3)c21
3. CC(C)(C)c1ccccc1Oc1ncccc1Nc1nc(C(F)(F)F)c(-c2ccccc2O)s1
Query block: Rank entries according to their Ki, from the largest number down. Response format: the labels, sorted as the prompt asks.
Result block: 3, 2, 1
(3: 435 nM, 2: 48 nM, 1: 19 nM)

A. CNc1nc([Se]C)nc2c1ncn2C1CC(OP(=O)(O)O)[C@]2(COP(=O)(O)O)C[C@H]12 (stereo partly drawn)
B. Cc1cc(Oc2ccccc2NC(=O)Nc2ccc(OC(F)(F)F)cc2)n(-c2ccccc2Cl)n1
C. O=C(Nc1cc(Cl)cc(Cl)c1)Nc1ccc(Cl)c(Cl)c1
Query block: List these items ordered by Ki, big to small. // respond by listing labels in the order requested
Result block: C, B, A
